From: the supplement of paper PMC9844399

Please provide measured MALAT1 nuclear FISH intensity for the entries that follow.
system: HeLa; experiment: MALAT1 nuclear FISH intensity, robust Z-score vs DMSO; higher = more nuclear MALAT1 lncRNA, active = -3 or less; settings: 10 µM; 6 h;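 note: High-content confocal imaging of branched-DNA amplified FISH in 384-well plates, Hoechst-defined nuclei, score is well value minus plate DMSO median over DMSO robust SD, four wells per compound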
Structures can show the parent of a compound that is named as a salt.
// print number alone

Fill in the blank: the reported MALAT1 nuclear FISH intensity of `OC[C@H]1O[C@H](O[C@H]2O[C@H](CO)[C@@H](O)[C@H](O)[C@H]2O)[C@H](O)[C@@H](O)[C@@H]1O` is ____.
-1.08

Query Clc1ccc(CSC(Cn2ccnc2)c2ccc(Cl)cc2Cl)cc1 (stereo not drawn) [Sulconazole Nitrate] next
0.433

Would you mind doing `CCOC(=O)[C@H](CCc1ccccc1)N[C@H]1CCc2ccccc2N(CC(=O)O)C1=O` as well?
-1.39

Further, for `CCCN(CCC)CCc1cccc2c1CC(=O)N2` ?
-0.318

Next compound: `COc1cccc2c1C(=O)c1c(O)c3c(c(O)c1C2=O)C[C@@](O)(C(=O)CO)C[C@@H]3O[C@H]1C[C@H](N)[C@@H](O)[C@H](C)O1`
-1.13

Now try `COc1cc2c3cc1Oc1c(OC)c(OC)cc4c1[C@@H](Cc1ccc(OC(=O)c5ccc([N+](=O)[O-])cc5)c(c1)Oc1ccc(cc1)C[C@@H]3N(C)CC2)N(C)CC4` .
1.07

Same lookup for `CCC(=O)N1CCN(c2ccc(-n3c(=O)ccc4cnc5ccc(-c6cnc7ccccc7c6)cc5c43)cc2C(F)(F)F)CC1` , please.
-1.13

What do we get for C[N+]1(C)CCC(OC(=O)C(O)(c2ccccc2)C2CCCC2)C1 (stereo not drawn) [Glycopyrrolate Iodide] ?
-0.341

Then this compound: `C[C@H]1C[C@H]2[C@@H]3CCC4=CC(=O)C=C[C@]4(C)[C@@]3(F)[C@@H](O)C[C@]2(C)[C@@]1(O)C(=O)CO`
2.13

Same question for `CCCCc1oc2ccccc2c1C(=O)c1cc(I)c(OCCN(CC)CC)c(I)c1` please.
-0.306

Let us now turn to `Cc1ccc(/C(=C\CN2CCCC2)c2cccc(/C=C/C(=O)O)n2)cc1`
-0.247

Try `CCCCC/C=C\C/C=C\C/C=C\C=C\[C@@H](O)CCCC(=O)O` next.
0.216

Same question for CN(C)CCC(c1ccc(Br)cc1)c1ccccn1 (stereo not drawn) [Brompheniramine Maleate] please.
0.169

Here is the next compound: `COC(=O)[C@H](c1ccccc1Cl)N1CCc2sccc2C1`
-1.13

Queued: `CC(C)(C)C1CCN(C(=O)n2ncc(C(O)(c3ccccc3)c3ccccc3)n2)CC1`
-0.425

Also, `CS(=O)(=O)c1ccc(C(=O)Nc2ccc(Cl)c(-c3ccccn3)c2)c(Cl)c1` please.
-0.859

Entry to check: Cc1ccc(C(=O)c2ccc(CC(=O)O)n2C)cc1 [Tolmetin sodium dihydrate]
-0.389

Follow-up entry: `CN(C)c1ccc(O)c2c1C[C@H]1C[C@H]3[C@H](N(C)C)C(O)=C(C(N)=O)C(=O)[C@@]3(O)C(O)=C1C2=O`
0.55

Continue with C[C@H]1O[C@H](O[C@H]2[C@H](O)[C@@H](O)[C@@H](O[C@H]3[C@H](O)[C@@H](O)C(O)O[C@@H]3CO)O[C@@H]2CO)[C@H](O)[C@@H](O)[C@@H]1N[C@H]1C=C(CO)[C@@H](O)[C@H](O)[C@H]1O (stereo partly drawn)
-1.04

Would you mind doing CN[C@H]1CC[C@@H](c2ccc(Cl)c(Cl)c2)c2ccccc21 [Sertraline hydrochloride] as well?
-1.48

And then `CCC1(c2ccccc2)C(=O)NCNC1=O` , what is it?
0.625

Could you do the same for `CC(C)c1ccc2oc3nc(N)c(C(=O)O)cc3c(=O)c2c1` , please?
0.337

Same read-out for CC(=O)OCC(=O)[C@@]1(O)CC[C@H]2[C@@H]3CCC4=CC(=O)CC[C@]4(C)[C@H]3C(=O)C[C@@]21C [Cortisone Acetate] ?
0.39

// query: `Oc1ncnc2[nH]ncc12`
-0.557

What would you report for `CO/N=C(\C(=O)N[C@@H]1C(=O)N2C(C(=O)O)=C(C[N+]3(C)CCCC3)CS[C@H]12)c1csc(N)n1` ?
0.948

Again, but for NCCCC(N)(C(=O)O)C(F)F (stereo not drawn)
-0.00313

Next: CCCCCCCCCCCCC/C=C/[C@@H](O)[C@H](CO)NC(C)=O [C2 Ceramide]
0.202

Input CCCN[C@H]1CCc2nc(N)sc2C1 [Pramipexole Dihydrochloride Monohydrate]
-0.69

What do we get for `CC(=O)NC[C@H]1CN(c2ccc(N3CCOCC3)c(F)c2)C(=O)O1` ?
-1.13

`CCN(CC)CCNC(=O)c1c(C)[nH]c(/C=C2\C(=O)Nc3ccc(Cl)cc32)c1C` ?
-0.183

For `Cc1cc2c(s1)Nc1ccccc1N=C2N1CCN(C)CC1` then?
1.43

Repeat with `CC/C(=C(/CC)c1ccc(O)cc1)c1ccc(O)cc1`
-0.534

Same question, `CCCCCC#CCC#CCC#CCC#CCCCC(=O)O` this time
-0.86
